test system: TA100; settings: TA100, +S9, positive control compounds

compound: O=c1c(O)c(-c2ccc(O)c(O)c2)oc2cc(O)cc(O)c12
number of positive wells: 5/48

compound: Nc1ccc2cc3ccccc3cc2c1
number of positive wells: 11/48

compound: CN(N=O)C(=O)N[C@H]1C(O)O[C@H](CO)[C@@H](O)[C@@H]1O (mixture of isomers)
number of positive wells: 7/48

compound: Nc1c2ccccc2nc2ccccc12
number of positive wells: 2/48

###

// values below are reported number of positive wells
test system: TA1537; conditions: TA1537, −S9, positive control compounds

compound: CN(N=O)C(=O)N[C@H]1C(O)O[C@H](CO)[C@@H](O)[C@@H]1O (mixture of isomers) [Streptozotocin]
number of positive wells: 1/48
--
compound: Nc1ccc2cc3ccccc3cc2c1 [Host 2-AA, 2-aminoanthracene]
number of positive wells: 0/48
--
compound: O=c1c(O)c(-c2ccc(O)c(O)c2)oc2cc(O)cc(O)c12 [Quercetin]
number of positive wells: 1/48
--
compound: Nc1c2ccccc2nc2ccccc12 [Host 9-AA, 9-aminoacridine]
number of positive wells: 24/48
